tested on: Staphylococcus aureus; assay: Antibacterial activity against methicillin-resistant Staphylococcus aureus NR10186 incubated for 16 to 18 hrs by broth microdilution assay; type: functional
Each record here notes measured MIC.

Previously resolved entries follow.
N#Cc1ccc(/C=C/c2nc3cccc(F)c3c(=O)n2-c2cccc(O)c2)cc1 : < 0.125 µg/mL
C[C@H]1COc2c(N3CCN(C)CC3)c(F)cc3c(=O)c(C(=O)O)cn1c23.C[C@H]1COc2c(N3CCN(C)CC3)c(F)cc3c(=O)c(C(=O)O)cn1c23.O : 4 to 8 µg/mL
N#Cc1ccc(/C=C/c2nc3ccccc3c(=O)n2-c2ccc(C(=O)O)c(O)c2)cc1 : < 0.125 µg/mL

Proceed to the following item.
Exercise: Answer with reported MIC of C[C@@H](O)[C@H]1C(=O)N2C(C(=O)O)=C(S[C@@H]3CN[C@H](C(=O)N(C)C)C3)[C@H](C)[C@H]12
Key: 16 to 32 µg/mL

###

experiment: Selectivity index, ratio of CC50 for African green monkey Vero cells to MIC for Staphylococcus aureus ATCC 29213; assay type: toxicity; settings: read-out: Selectivity Index
measurement.name: selectivity ratio

Exercise: Report selectivity ratio, nothing else, for this molecule: N#Cc1ccc(/C=C/c2nc3ccccc3c(=O)n2-c2ccc(C(=O)O)c(O)c2)cc1
Key: > 167

Exercise: Consider the molecule N#Cc1ccc(/C=C/c2nc3cccc(F)c3c(=O)n2-c2cccc(O)c2)cc1 . State its measured selectivity ratio.
Key: > 83.4

Exercise: Note down selectivity ratio recorded for C#CCOc1cccc(-n2c(/C=C/c3ccc(C#N)cc3)nc3cccc(F)c3c2=O)c1
Key: > 10

Exercise: Identify measured selectivity ratio associated with C#Cc1cccc(-n2c(/C=C/c3ccc(C#N)cc3)nc3cccc(F)c3c2=O)c1
Key: > 40

Exercise: Please supply the value of reported selectivity ratio for the item N#Cc1ccc(/C=C/c2nc3ncccc3c(=O)n2-c2ccc(S)cc2)cc1
Key: > 5

###

tested on: Staphylococcus aureus; test: Antibacterial activity against methicillin-resistant Staphylococcus aureus NR10192 incubated for 16 to 18 hrs by broth microdilution assay; type: functional
measurement.name: MIC

Example entries and their recorded answers appear below.
C[C@@H](O)[C@H]1C(=O)N2C(C(=O)O)=C(S[C@@H]3CN[C@H](C(=O)N(C)C)C3)[C@H](C)[C@H]12 : 4 to 8 µg/mL
C[C@H]1COc2c(N3CCN(C)CC3)c(F)cc3c(=O)c(C(=O)O)cn1c23.C[C@H]1COc2c(N3CCN(C)CC3)c(F)cc3c(=O)c(C(=O)O)cn1c23.O : 4 to 8 µg/mL
N#Cc1ccc(/C=C/c2nc3ccccc3c(=O)n2-c2ccc(C(=O)O)c(O)c2)cc1 : < 0.125 µg/mL

Exercise: Give reported MIC value for N#Cc1ccc(/C=C/c2nc3cccc(F)c3c(=O)n2-c2cccc(O)c2)cc1
Key: < 0.125 µg/mL

###

tested on: Staphylococcus aureus; test: Antibacterial activity against methicillin-resistant Staphylococcus aureus NR10129 incubated for 16 to 18 hrs by broth microdilution assay; assay type: functional
Entries and their MIC values follow.
Give the value in µg/mL but do not write µg/mL after it.

C[C@H]1COc2c(N3CCN(C)CC3)c(F)cc3c(=O)c(C(=O)O)cn1c23.C[C@H]1COc2c(N3CCN(C)CC3)c(F)cc3c(=O)c(C(=O)O)cn1c23.O [LEVOFLOXACIN] : 0.5

Then there is this compound:
Exercise: Indicate its recorded MIC; the compound in question is C[C@@H](O)[C@H]1C(=O)N2C(C(=O)O)=C(S[C@@H]3CN[C@H](C(=O)N(C)C)C3)[C@H](C)[C@H]12 [MEROPENEM]
Key: 16

###

test system: Staphylococcus aureus; test: Antibacterial activity against Staphylococcus aureus ATCC 29213 incubated for 16 to 18 hrs by broth microdilution assay; format: functional
Collected MIC values appear next to each entry.

N#Cc1ccc(/C=C/c2nc3ccccc3c(=O)n2-c2cccnc2)cc1 : 64 µg/mL
N#Cc1ccc(/C=C/c2nc3cc(-n4cc(-c5ccccc5)nn4)ccc3c(=O)n2-c2ccccc2)cc1 : > 64 µg/mL

Exercise: Recall and state the measured MIC for COc1ccc(-c2cn(-c3ccc4c(=O)n(-c5ccccc5)c(C)nc4c3)nn2)cc1 .
Key: > 64 µg/mL

Exercise: Specify measured MIC for COc1cc(-n2cc(COc3ccc4nc(C)n(-c5ccccc5)c(=O)c4c3)nn2)cc(OC)c1OC .
Key: > 64 µg/mL

###

test system: Staphylococcus aureus; assay: Antibacterial activity against methicillin-resistant Staphylococcus aureus NR10198 incubated for 16 to 18 hrs by broth microdilution assay; format: functional
measurement.name: MIC

C[C@H]1COc2c(N3CCN(C)CC3)c(F)cc3c(=O)c(C(=O)O)cn1c23.C[C@H]1COc2c(N3CCN(C)CC3)c(F)cc3c(=O)c(C(=O)O)cn1c23.O : 32 µg/mL

Exercise: Give MIC for N#Cc1ccc(/C=C/c2nc3cccc(F)c3c(=O)n2-c2cccc(O)c2)cc1
Key: < 0.125 µg/mL

Exercise: Specify reported MIC for the compound shown: N#Cc1ccc(/C=C/c2nc3ccccc3c(=O)n2-c2ccc(C(=O)O)c(O)c2)cc1
Key: < 0.125 µg/mL

Exercise: Provide MIC value for the following compound: C[C@@H](O)[C@H]1C(=O)N2C(C(=O)O)=C(S[C@@H]3CN[C@H](C(=O)N(C)C)C3)[C@H](C)[C@H]12
Key: 32 µg/mL

###

Measured MIC by item
tested on: Staphylococcus aureus; assay: Antibacterial activity against methicillin-resistant Staphylococcus aureus NR100 incubated for 16 to 18 hrs by broth microdilution assay; format: functional

Before answering, review these 3 worked examples.
N#Cc1ccc(/C=C/c2nc3ccccc3c(=O)n2-c2ccc(C(=O)O)c(O)c2)cc1 : 0.125 to 0.25 µg/mL
C[C@@H](O)[C@H]1C(=O)N2C(C(=O)O)=C(S[C@@H]3CN[C@H](C(=O)N(C)C)C3)[C@H](C)[C@H]12 : > 64 µg/mL
N#Cc1ccc(/C=C/c2nc3cccc(F)c3c(=O)n2-c2cccc(O)c2)cc1 : 0.5 µg/mL

Next, consider the following compound.
Exercise: Retrieve MIC on Staphylococcus aureus; query C[C@H]1COc2c(N3CCN(C)CC3)c(F)cc3c(=O)c(C(=O)O)cn1c23.C[C@H]1COc2c(N3CCN(C)CC3)c(F)cc3c(=O)c(C(=O)O)cn1c23.O
Key: < 0.5 µg/mL

###

test system: Staphylococcus aureus; assay: Antibacterial activity against methicillin-susceptible Staphylococcus aureus ATCC 29213 incubated for 16 to 18 hrs by broth microdilution assay; type: functional
measurement.name: MIC

Record excerpt, results attached:
N#Cc1ccc(/C=C/c2nc3cccc(F)c3c(=O)n2-c2cccc(O)c2)cc1 : < 0.125 µg/mL
C[C@@H](O)[C@H]1C(=O)N2C(C(=O)O)=C(S[C@@H]3CN[C@H](C(=O)N(C)C)C3)[C@H](C)[C@H]12 : < 0.5 µg/mL
N#Cc1ccc(/C=C/c2nc3ccccc3c(=O)n2-c2ccc(C(=O)O)c(O)c2)cc1 : < 0.125 µg/mL

# evaluate next
Exercise: Write MIC of C[C@H]1COc2c(N3CCN(C)CC3)c(F)cc3c(=O)c(C(=O)O)cn1c23.C[C@H]1COc2c(N3CCN(C)CC3)c(F)cc3c(=O)c(C(=O)O)cn1c23.O ; system used: Staphylococcus aureus
Key: < 0.5 µg/mL

###

test: Cytotoxicity against African green monkey Vero cells assessed as reduction in cell viability after 72 hrs by MTT assay; assay type: cell-based; settings: chlorocebus sabaeus
measurement.name: CC50 at 72 h

Cc1nc2ccc(OCc3cn(-c4ccc(Cl)cc4)nn3)cc2c(=O)n1-c1ccccc1 : > 33.3 µg/mL
Cc1nc2cc(-c3ccccc3)ccc2c(=O)n1-c1cccc(Cl)c1 : 12.5 µg/mL
N#Cc1ccc(/C=C/c2nc3ccccc3c(=O)n2-c2ccc(C(=O)O)c(O)c2)cc1 : > 5 µg/mL

Now for a further molecule.
Exercise: Return CC50 at 72 h for the following molecule: Cc1nc2ccc(OCc3cn(-c4cccc(Cl)c4)nn3)cc2c(=O)n1-c1ccccc1
Key: > 100 µg/mL

###

system: Staphylococcus aureus; assay: Antibacterial activity against Staphylococcus aureus ATCC 29213 incubated for 16 to 18 hrs by broth microdilution assay; assay type: functional
Listing of entries alongside the reported MIC.
Report only the number, with the unit µg/mL understood.

Check out these entries, answers already filled in.
Cc1nc2cc(-n3cc(-c4ccc(Br)cc4)nn3)ccc2c(=O)n1-c1ccccc1 : 64
CN(C)c1ccc(O)c2c1C[C@H]1C[C@H]3[C@H](N(C)C)C(O)=C(C(N)=O)C(=O)[C@@]3(O)C(O)=C1C2=O [MINOCYCLINE] : 0.125
Cc1nc2ccc(OCc3cn(Cc4ccc(Br)cc4)nn3)cc2c(=O)n1-c1ccccc1 : 64

Exercise: For the molecule CCCCCCCCCC(=O)N[C@@H](Cc1c[nH]c2ccccc12)C(=O)N[C@H](CC(N)=O)C(=O)N[C@@H](CC(=O)O)C(=O)N[C@@H]1C(=O)NCC(=O)N[C@@H](CCCN)C(=O)N[C@@H](CC(=O)O)C(=O)N[C@H](C)C(=O)N[C@@H](CC(=O)O)C(=O)NCC(=O)N[C@H](CO)C(=O)N[C@@H]([C@H](C)CC(=O)O)C(=O)N[C@@H](CC(=O)c2ccccc2N)C(=O)O[C@@H]1C , give its reported MIC.
Key: 0.5

Exercise: Give reported MIC value for N#Cc1ccc(/C=C/c2nc3cccc(F)c3c(=O)n2-c2cccc(C#N)c2)cc1
Key: 32
